- target entity: Alpha-2C adrenergic receptor (Homo sapiens) (UniProt P18825)
- Sequence (P18825 whole entry, looked up): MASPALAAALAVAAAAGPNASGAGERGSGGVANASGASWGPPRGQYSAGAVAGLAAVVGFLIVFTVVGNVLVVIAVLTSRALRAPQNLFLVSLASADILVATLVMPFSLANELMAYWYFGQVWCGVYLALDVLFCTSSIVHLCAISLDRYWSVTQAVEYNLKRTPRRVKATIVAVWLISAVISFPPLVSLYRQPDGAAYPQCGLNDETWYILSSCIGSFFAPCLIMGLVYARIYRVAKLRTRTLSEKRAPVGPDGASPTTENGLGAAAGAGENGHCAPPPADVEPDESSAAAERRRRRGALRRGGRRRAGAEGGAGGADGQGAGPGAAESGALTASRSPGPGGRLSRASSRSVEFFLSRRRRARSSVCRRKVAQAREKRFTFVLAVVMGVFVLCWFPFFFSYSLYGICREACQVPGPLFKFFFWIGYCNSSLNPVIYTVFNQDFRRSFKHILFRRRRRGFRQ
- assay remarks: modulators of alpha2C/GIRK thallium flux, primary screen, cell-based, HEK293 alpha2C/GIRK1/2 (AID 624);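 further: slope of fluorescence ratio to pre-addition baseline per second over 15 to 24 s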
- experimental context: thallium flux BTC fluorescence, at 10 µM, actives lie on both sides
Answer each item with its documented slope.
Numbers only.

Examples from the recorded data:
{"compound": "CCCCc1c(O)nc(N2CCN(Cc3ccccc3)CC2)[nH]c1=O", "slope": 0.0053}
{"compound": "CCOc1ccccc1-n1c(SCC(=O)NC(C)CC)nnc1-c1ccoc1C (stereo not given)", "slope": 0.00423}
{"compound": "CCOC(=O)c1cc(CC)sc1NC(=O)CCC(=O)O", "slope": 0.00617}
{"compound": "O=C(CCN1C(=O)COc2ccccc21)NCCCN1CCN(c2ccccc2F)CC1", "slope": 0.004}
{"compound": "COCCn1c(SCC(=O)N2CCc3ccccc32)nc2c(c1=O)SC(C)C2 (stereo not given)", "slope": 0.00569}
{"compound": "O=c1[nH]c2sc3c(c2c2nncn12)CCCC3", "slope": 0.00486}
{"compound": "O=C(OCc1cc2ccccc2[nH]c1=O)c1ccco1", "slope": 0.0037}
{"compound": "Cc1nnc(NC(=O)CSc2cn(CCNC(=O)c3ccccc3)c3ccccc23)s1", "slope": 0.00437}

Please give slope, item by item, for the list that follows.
1. CC(C)CCn1c(=O)c2ccccc2n2c(CN(C)Cc3ccccc3)nnc12
2. O=C(CSc1nc(-c2ccccc2)cs1)NCc1ccco1
3. Cc1nc2ccccc2c2oc(C(=O)NCCCN3CCCC3=O)cc12
4. CCOc1ccc(C(=O)OCc2nnc(-c3cccs3)o2)cc1OC
5. O=C(CS(=O)CC(=O)Nc1cccc2c1CCCC2)Nc1ccc(F)cc1 (stereo not given)
6. Cn1nnnc1SCC(=O)Nc1ccccc1-c1ccccc1
7. C=CCSC1=C(C#N)C(c2ccccc2)CC(=O)N1 (stereo not given)

Output:
[0.00576, 0.00584, 0.00837, 0.00555, 0.00343, 0.00645, 0.00534]
